Data origin: ChEMBL document CHEMBL3091424

# System: Staphylococcus aureus
# measurement-notes: Antimicrobial activity against Staphylococcus aureus MTCC 96 after 24 hrs by well diffusion method
# Assay type: functional
# experimental-conditions: MTCC 96, 24 h
result-type: MIC (µg/mL)
Numeric answer only, unit µg/mL assumed.

Recorded MIC (molecule "O=C(NCc1cn(Cc2ccc(F)c(Cl)c2)nn1)c1ccc([N+](=O)[O-])o1" ): 18.8

Recorded MIC (molecule "COc1ccc(Cn2cc(CNC(=O)c3ccc([N+](=O)[O-])o3)nn2)cc1" ): 37.5

Recorded MIC (molecule "O=C(O)c1cn(C2CC2)c2cc(N3CCNCC3)c(F)cc2c1=O" ): 0.58

Recorded MIC (molecule "COc1cc(Cn2cc(CNC(=O)c3ccc([N+](=O)[O-])o3)nn2)ccc1O" ): 18.8

Recorded MIC (molecule "COc1ccc(Cn2cc(CNC(=O)c3ccc([N+](=O)[O-])o3)nn2)cc1O" ): 37.5
